Each entry below carries its reported melting point.

See these solved cases before continuing.
[[record]]
molecule = "C[C@@H](Nc1ncnc2[nH]c(-c3ccc(CN4CCCC4)cc3)cc12)c1ccccc1 [Example 4]"
endpoint = "melting point"
observed_measurement = "254 to 256 °C"

[[record]]
molecule = "C[C@@H](Nc1ncnc2[nH]c(-c3ccc(CN(C)C)cc3)cc12)c1ccccc1 [Example 5]"
endpoint = "melting point"
observed_measurement = "241 to 243 °C"

[[record]]
molecule = "C[C@@H](Nc1ncnc2[nH]c(-c3ccc(CN4CCOCC4)cc3)cc12)c1ccccc1 [Example 7]"
endpoint = "melting point"
observed_measurement = "263 to 265 °C"

[[record]]
molecule = "C[C@@H](Nc1ncnc2[nH]c(-c3ccc(CN4CCN(C)CC4)cc3)cc12)c1ccccc1 [Example 1]"
endpoint = "melting point"
observed_measurement = "248 to 250 °C"

[[record]]
molecule = "C[C@@H](Nc1ncnc2[nH]c(-c3ccc(CN4CCCCC4)cc3)cc12)c1ccccc1 [Example 6]"
endpoint = "melting point"
observed_measurement = "246 to 248 °C"


Please report melting point for the following molecule: CC1CN(Cc2ccc(-c3cc4c(N[C@H](C)c5ccccc5)ncnc4[nH]3)cc2)CC(C)N1 (stereo partly drawn) [Example 8] 208 to 210 °C

Identify melting point associated with the molecule CCN(CC)Cc1ccc(-c2cc3c(N[C@H](C)c4ccccc4)ncnc3[nH]2)cc1 [Example 2] 246 to 248 °C

Supply melting point value. Item: C[C@@H](Nc1ncnc2[nH]c(-c3ccc(CNCCN4CCOCC4)cc3)cc12)c1ccccc1 [Example 9] 222 to 224 °C

Please report melting point for the following molecule: C[C@@H](Nc1ncnc2[nH]c(-c3ccc(CNC4CCOCC4)cc3)cc12)c1ccccc1 [Example 10] 253 to 255 °C
